- assayExplanation: Cmax in cage fluid of Albino guiena pig at 10 mg/kg, ip after 12 hrs
- Type: ADME, organism-based, Cavia porcellus, Interstitial fluid
- Design: dose 10 mg/kg, route intraperitoneal
- cond: guinea pig
readoutName: Cmax

C[C@H]1COc2c(N3CCN(C)CC3)c(F)cc3c(=O)c(C(=O)O)cn1c23.C[C@H]1COc2c(N3CCN(C)CC3)c(F)cc3c(=O)c(C(=O)O)cn1c23.O | 1500 ng/mL

---

- assayExplanation: Cmin in cage fluid of Albino guiena pig at 12.5 mg/kg, ip after 12 hrs
- Format: ADME, organism-based, Cavia porcellus
- Set-up: dose 12.5 mg/kg, route intraperitoneal
- cond: guinea pig, read-out: Cmin
readoutName: concentration at 12 h (ng/mL)

CO[C@H]1/C=C/O[C@@]2(C)Oc3c(C)c(O)c4c(O)c(c(/C=N/N5CCN(C)CC5)c(O)c4c3C2=O)NC(=O)/C(C)=C\C=C\[C@H](C)[C@H](O)[C@@H](C)[C@@H](O)[C@@H](C)[C@H](OC(C)=O)[C@@H]1C | 100
